Measured Intensity (against −ve control), IGFII by item
tgt: IGF-II (Homo sapiens, UniProt P01344)
Construct: purchased GroPep
Sequence (P01344 25-91 limits assumed): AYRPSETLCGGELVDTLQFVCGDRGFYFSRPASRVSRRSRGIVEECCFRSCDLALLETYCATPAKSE
experimentalDetails: VN-peptide array: binding of IGF-II to immobilized overlapping 16-mer VN peptides
measurementContext: relative spot intensity on VN-peptide array after IGF-II incubation, vs average intensity of negative controls (TotalLab)
Where no end group is shown, it is not given here.

[
  {
    "entrySequence": "LFSSEESNLGANNYDD (not fully specified (N-terminus)) [Peptide 7A]",
    "propertyName": "Intensity (against −ve control), IGFII",
    "assayResult": "17-IGF-II fold-change"
  },
  {
    "entrySequence": "DELCSYYQSCCTDYTA (not fully specified (N-terminus); cysteine pairing not given here) [Peptide 1B]",
    "propertyName": "Intensity (against −ve control), IGFII",
    "assayResult": "12-IGFII fold-change"
  },
  {
    "entrySequence": "SEESNLGANNYDDYRM (not fully specified (N-terminus)) [Peptide 7B]",
    "propertyName": "Intensity (against −ve control), IGFII",
    "assayResult": "18-IGF-II fold-change"
  },
  {
    "entrySequence": "TRQPQFISRDWHGVPG (not fully specified (N-terminus)) [Peptide 6C]",
    "propertyName": "Intensity (against −ve control), IGFII",
    "assayResult": "1.5-IGFII fold-change"
  }
]

# next sequence below
Q: Lookup: Intensity (against −ve control), IGFII / IGF-II (Homo sapiens, UniProt P01344) / SNLGANNYDDYRMDWL (not fully specified (N-terminus)) [Peptide 7C]
A: 12-IGF-II fold-change
